# test: label from the status in PepcDB records
assay-metric: protein production

1. MDRGGVLRVAAAALPAYAYFYNVGSIGFWLPLHVRELGWPYTYITLIATWYFVAVTLATPLVGLLSDLTRRPGYILAGGMAVVAATSVAIPHVENPPLLMALRALQGLGLAVGLPIALGSLSLIQGVRRGVASTVIASGLGMSGGAFLSGLMVEYLGFPALFYAAAVPAALSTLVALGWRPPPPPSGSPGLLAALRSMPWEVLVVMAGIAVRNTFASGVFSVVSIIFNKIVGISYTATGVVLAINPAVQASVTTVFERIMRGRALLLYSTGLSGTALAFYLYLTAGSALDLAAAQIALGAFYGATVVSGNTMIIALAPSEIRYTASSLYTFAFNIGWILGTSIAGKVMDAAGVDAWIKLAIAGTLVSGLIPLTLLASPRARRI : failed
2. MTTIHFHNVYVASRGTSVGLLEKQGPLGNRFDYTHEDNTCQQDSFEKAERYMLQEAVDATIRKSDYSIKDIEVMIGGDLINQLTSSHYFAKEFPISFLGMYAACASSSLVIGQAALWVEHQLAKTALAFTSSHVATAERQFRFPNEYGIQKKETTTCTVTGAGAVLLSRKKSKLKVASFTVGKVVDWQYNDANDMGVAMAPAAYDTLTTYFKDTNQSFQDFDLIVTGDLSKLGFAFLRDLLLQNGYCCEEKLQDCGLMIYDIVKQNVFCGGSGCACSMCVSMTKLLDLLEQQEARRIMVLATGALLSPIAIQQKESIPCIAHAIVYERS : failed
3. MKKIYIILLILFVILISLIGASILLVMSLSGENVDLFGGEKIAKVYLCNEIYFDYNQGDGIFPQQKKDARYYINLLDDLEKDDSVKGVLLVVNSPGGEVIASEKLARKVEELAKKKPVVVYVEGLDASGAYMVSAPADYIVAEKHSIVGSIGVRMDLMHYYGLMKKLGINVTTIKAGKYKDIGSPFRPMTKEEKEYLQKMINETYMDFVKWVAEHRHLSINYTLKIADGKIYSGEDAKKVGLVDEVGTEEDALKKLEQLANVSNPEIVEYGLEENKGLFGLTYYLGYGIGKGIGEVLYGMEKINGRVELLSLEHHHHHH : failed

----------
# test: label from the status in PepcDB records
assay-metric: protein production

1. MPHKLLPWLAIASAMSAFTLQAQPMPDTELLMGSYTQGKSEGIYRFGFNSQTGLIDAKPLQVIKSDNPSWLTLSKDQRHLFAVNENGPGQKDVVGKVSSFAIDPKTRQITPINQVQSRGEEPTHSSLSYDGRYLFVANYAVNPDPGGALTVVPVGKDGTLSEAVQVLPLGPGSKVNSERQLSSHVHLAVPTPDNKYVVSADLGADKLFVYRYDANQAKPLQPAKVPTVQLPGGSGPRHTLFSADGKHAWLVLEMTAQVAVFDYHDGGFKQTQLVDMKNKGVEEKNGGGALHTSPDGKFLYVTNRGDANQVVVFRIDQASGKLEEIQRRSLEGKEPREFAFDPTGKFMLFANQKSNQIVTVRRDPQSGMIGDTVQKFDADSPSYLRFLTEK : failed
2. MVMMSKQLTAQAPVDPIVLGKMGSSYGIRGWLRVFSSTEDAESIFDYQPWFIQKAGQWQQVQLESWKHHNQDMIIKLKGVDDRDAANLLTNCEIVVDSSQLPQLEEGDYYWKDLMGCQVVTTEGYDLGKVVDMMETGSNDVLVIKANLKDAFGIKERLVPFLDGQVIKKVDLTTRSIEVDWDPGFLEHHHHHH : failed
